- procedure_details: chemical genetic growth profiling, strain panel (AID 1159580);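 also: tested at 20 µM; growth read once vehicle control cultures reached saturation at 30 °C; 1 = growth at the plate median or of vehicle wells; lower values mean less growth of the strain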
- run_parameters: S. cerevisiae deletion strains, growth OD, strain TSCII
The whole screen tested about 5,500 compounds, of which about 2,000 (36%) were called active. Roughly 18% stayed inconclusive and do not appear here. Rule as the data show it: active = normalized growth mostly below about 0.91 (no sharp cut-off); inconclusive = no clear call, values can overlap the other calls; inactive = mostly above about 0.92. Some of the results follow.
Assign a class; possible classes are t (active), f (inactive)

- compound: "CCCc1cnc(N2CCN(CC(=O)N(c3ccccc3)C3CCCCC3)CC2)nc1"
  assigned_label: "f"
- compound: "Clc1ccccc1N/N=C\\Cc1nnnn1-c1ccccc1"
  assigned_label: "f"
- compound: "Cc1ccc(C(=O)O/N=C(/N)CSc2ncccc2C(F)(F)F)cc1"
  assigned_label: "f"
- compound: "O=C(NCc1cccs1)c1csc(Cc2c(Cl)cccc2Cl)n1"
  assigned_label: "f"
- compound: "N/C(CSc1ccc(Cl)cc1)=N/OC(=O)c1ccc(C(F)(F)F)cc1"
  assigned_label: "t"

Recorded test outcome, item CC(O)(CNCc1ccc(Cl)cc1)CSc1ccccc1Cl (configuration not stated)
f

Recorded test outcome, item O=C1c2ccccc2O[C@@H](c2ccccc2)[C@@H]1NC1CCCCC1
f

Recorded test outcome, item Cc1cc(C(=O)N(c2ccccc2)C(C)C2CC2)c(Cl)cc1Cl (configuration not stated)
f

Recorded test outcome, item CC(C)CSc1nnc(CSCc2nc(-c3ccc(Cl)cc3)cs2)n1C
f

Recorded test outcome, item N#CCCCCOc1ccc2c(=O)cc(-c3ccccc3)oc2c1
f

Recorded test outcome, item O=C1Nc2ccccc2/C1=N/N=C\c1cc(Br)cc(Br)c1O
f

Recorded test outcome, item CC(C)(C)c1csc(NC(=O)c2ccc(Cl)cc2Cl)n1
f

====

- procedure_details: chemical genetic growth profiling, strain panel (AID 1159580);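 also: tested at 20 µM; growth read once vehicle control cultures reached saturation at 30 °C; 1 = growth at the plate median or of vehicle wells; lower values mean less growth of the strain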
- run_parameters: S. cerevisiae deletion strains, growth OD, locus YDR069C, strain doa4
The whole screen tested about 5,500 compounds, of which about 2,000 (36%) were called active. Roughly 18% stayed inconclusive and do not appear here. Rule as the data show it: active = normalized growth mostly below about 0.91 (no sharp cut-off); inconclusive = no clear call, values can overlap the other calls; inactive = mostly above about 0.92. The list shows a part of the results.
Assign a class; possible classes are active, inactive

- input_smiles: "COc1ccc(-c2coc3cc(OC(C)=O)cc(OC(C)=O)c3c2=O)cc1"
  assigned_label: "inactive"
- input_smiles: "CCCCC1C(=O)N(c2ccccc2)N(c2ccccc2)C1=O"
  assigned_label: "inactive"
- input_smiles: "Nc1nc(N)c2nc(-c3ccccc3)c(N)nc2n1"
  assigned_label: "inactive"
- input_smiles: "CC(=O)Oc1cc(-c2coc3cc(OC(C)=O)c(OC(C)=O)c(OC(C)=O)c3c2=O)cc(OC(C)=O)c1OC(C)=O"
  assigned_label: "active"
- input_smiles: "NCCc1ccc(O)c(O)c1"
  assigned_label: "inactive"

Recorded test outcome, item CN(N=O)C(=O)N[C@@H]1[C@@H](O)[C@H](O)[C@@H](CO)O[C@@H]1O
inactive

Recorded test outcome, item CC1=NCCc2c1[nH]c1cc(O)ccc21
inactive

Recorded test outcome, item C[N+]1(CCCCC[N+]2(C)CCCC2)CCCC1
inactive

====

Each item that follows carries a reported normalized growth.
- procedure_details: chemical genetic growth profiling, strain panel (AID 1159580);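 also: tested at 20 µM; growth read once vehicle control cultures reached saturation at 30 °C; 1 = growth at the plate median or of vehicle wells; lower values mean less growth of the strain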
- run_parameters: S. cerevisiae deletion strains, growth OD, locus YAL040C, strain CLN3, hits give low values
The whole screen tested about 5,500 compounds, of which about 2,000 (36%) were called active. Inconclusive results (about 18%) are left out. The list shows a part of the results.
// keep it numeric: no unit symbol after the value

Which normalized growth reading was recorded for the molecule CN(C)CC/C=C1\c2ccccc2COc2ccccc21 ?
0.997

Which normalized growth reading was recorded for the molecule Nc1nnc(-c2cccc(Cl)c2Cl)c(N)n1 ?
0.986

Which normalized growth reading was recorded for the molecule COc1ccc2c(c1OC)C(=O)O[C@@H]2[C@H]1c2c(cc3c(c2OC)OCO3)CCN1C ?
0.984
